- measured-on: Free fatty acid receptor 3 (Homo sapiens, UniProt O14843)
- Sequence (O14843 whole entry): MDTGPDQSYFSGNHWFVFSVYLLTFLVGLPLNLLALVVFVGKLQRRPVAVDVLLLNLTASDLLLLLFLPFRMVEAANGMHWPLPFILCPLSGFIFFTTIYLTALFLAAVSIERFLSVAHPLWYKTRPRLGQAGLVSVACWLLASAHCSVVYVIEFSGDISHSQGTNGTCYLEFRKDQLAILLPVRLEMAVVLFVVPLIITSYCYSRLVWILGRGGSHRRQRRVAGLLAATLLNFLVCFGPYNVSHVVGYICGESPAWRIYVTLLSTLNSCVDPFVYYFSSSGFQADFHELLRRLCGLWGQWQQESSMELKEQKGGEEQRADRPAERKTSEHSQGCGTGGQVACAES
- protocol-notes: Agonist activity at human FFA3 receptor expressed in CHO cells assessed as increase in intracellular calcium flux by Fluo-8 dye based FLIPR assay
readout-type: EC50

Entry Cc1cccc(OCCC2CCOC3(CCN(Cc4ccc(COc5ccc(CCC(=O)O)cc5)cc4)CC3)C2)n1.Cl.Cl (stereo unspecified) : reported EC50 = ? > 10 µM

* * *

- measured-on: UniProt O14842
- Sequence (O14842 whole entry): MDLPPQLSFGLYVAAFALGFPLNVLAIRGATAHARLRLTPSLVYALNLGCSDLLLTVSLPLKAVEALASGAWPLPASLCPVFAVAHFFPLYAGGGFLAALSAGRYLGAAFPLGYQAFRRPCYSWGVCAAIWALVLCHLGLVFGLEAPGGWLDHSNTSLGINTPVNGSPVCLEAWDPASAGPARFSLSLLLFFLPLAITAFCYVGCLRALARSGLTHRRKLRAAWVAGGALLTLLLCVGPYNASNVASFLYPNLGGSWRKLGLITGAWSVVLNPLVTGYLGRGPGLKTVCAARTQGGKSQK
- protocol-notes: Agonist activity at human GPR40 expressed in CHO cells assessed as increase in intracellular calcium flux at 5 uM by Fluo-8 dye based FLIPR assay relative to GW9508
- Assay type: functional, cell-based
Listed compounds paired with reported %max
Numeric answer only, unit % assumed.

>  <compound>
O=C(O)CCc1ccc(OCc2ccc(CN3CCC4(CC3)CC(CCOc3cnccn3)CCO4)cc2)cc1 (centres undefined)

>  <measured-on>
UniProt O14842

>  <units-text>
%

>  <value-observed>
83.5

$$$$
>  <compound>
Cc1nccnc1OCCC1CCOC2(CCN(Cc3ccc(COc4ccc(CCC(=O)O)cc4)cc3)CC2)C1 (centres undefined)

>  <measured-on>
UniProt O14842

>  <units-text>
%

>  <value-observed>
105

$$$$
>  <compound>
O=C(O)CCc1ccc(OCc2ccc(CN3CCC4(CC3)CC(CCOc3cccnc3)CCO4)cc2)cc1 (centres undefined)

>  <measured-on>
UniProt O14842

>  <units-text>
%

>  <value-observed>
61.7

$$$$

GET /values?readout=%max&system=UniProt O14842&item= O=C(O)CCc1ccc(OCc2ccc(CN3CCC4(CC3)CC(CCOc3ncccn3)CCO4)cc2)cc1 (centres undefined) 54.5

GET /values?readout=%max&system=UniProt O14842&item= O=C(O)CCc1ccc(OCc2ccc(CN3CCC4(CC3)CC(CCOc3nc(C5CC5)nc5c3CCC5)CCO4)cc2)cc1 (centres undefined) 60.5

GET /values?readout=%max&system=UniProt O14842&item= Cc1cccc(OCCC2CCOC3(CCN(Cc4ccc(COc5ccc(CCC(=O)O)cc5)cc4)CC3)C2)n1.Cl.Cl (centres undefined) 100

GET /values?readout=%max&system=UniProt O14842&item= O=C(O)CCc1ccc(OCc2ccc(CN3CCC4(CC3)CC(CCOc3ccc(C(F)(F)F)cn3)CCO4)cc2)cc1 (centres undefined) 79.2

GET /values?readout=%max&system=UniProt O14842&item= O=C(O)CCc1ccc(OCc2ccc(CN3CCC4(CC3)CC(CCOc3ccc(F)cc3)CCO4)cc2)cc1 (centres undefined) 55

GET /values?readout=%max&system=UniProt O14842&item= O=C(O)CCc1ccc(OCc2ccc(CN3CCC4(CC3)CC(CCOc3ccc5ccccc5n3)CCO4)cc2)cc1 (centres undefined) 83.4
